TARGET_OR_TEST_SYSTEM: N-glycosylase/DNA lyase (Homo sapiens) (UniProt O15527);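 further: OGG1 cleavage of a quenched duplex DNA oligonucleotide, coupled to APE1 for strand incision, read as fluorescence at 594 nm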
Sequence (O15527 whole entry): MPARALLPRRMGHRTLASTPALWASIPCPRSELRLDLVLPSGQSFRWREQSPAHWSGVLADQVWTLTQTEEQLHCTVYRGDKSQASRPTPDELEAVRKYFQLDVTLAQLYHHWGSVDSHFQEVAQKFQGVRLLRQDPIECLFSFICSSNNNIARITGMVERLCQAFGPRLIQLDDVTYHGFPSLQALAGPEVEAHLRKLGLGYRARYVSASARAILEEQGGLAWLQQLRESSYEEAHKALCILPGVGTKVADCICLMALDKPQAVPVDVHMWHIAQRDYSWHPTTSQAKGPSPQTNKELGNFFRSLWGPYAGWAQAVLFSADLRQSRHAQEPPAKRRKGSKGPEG
STUDY_CONDITIONS: Compound Concentration 1.0 uM, Hit No
Description: Inhibition of OGG1 by quantifying inhibition of OGG1-mediated cleavage and dissociation of quenched duplex DNA oligonucleotides, measured as fluorescence at 594 nm. To generate a functional strand incision and increase turn-over this assay is coupled to APE1.
MEASUREMENT_KIND: inhibition (%)
// return numeric value only (unit: %, not printed)

# annotated cases, reported inhibition shown
Prompt: Name the recorded inhibition for `COc1cc(Nc2ncc3c(n2)-c2ccc(Cl)cc2C(c2c(F)cccc2OC)=NC3)ccc1C(=O)O` .
Response: 4.44

Prompt: Name the recorded inhibition for `O=C(Nc1ccc(-c2ccnc(Nc3ccc(N4CCOCC4)cc3)n2)cc1)[C@@H]1CCCN1` .
Response: 1.3

Prompt: Name the recorded inhibition for `CCS(=O)(=O)c1cc2cc(C[C@@](O)(CC(C)(C)c3ccc(F)cc3C(N)=O)C(F)(F)F)[nH]c2cn1` .
Response: -3.12

Prompt: Name the recorded inhibition for `Cc1cnc(Nc2ccc(F)cc2Cl)nc1-c1c[nH]c(C(=O)N[C@H](CO)c2cccc(Cl)c2)c1` .
Response: -8.42

Let us examine a further case.
Prompt: Name the recorded inhibition for `CN1CCN(C(=O)C(C)(C)c2ccc(C(=O)Nc3cn4cc(-c5ccncc5)ccc4n3)cc2)CC1` .
Response: -1.57
